Origin of the recorded values: the supplement of paper PMC3334620

- TESTED_ON: Gcr1 (UniProt P07261)
- Sequence: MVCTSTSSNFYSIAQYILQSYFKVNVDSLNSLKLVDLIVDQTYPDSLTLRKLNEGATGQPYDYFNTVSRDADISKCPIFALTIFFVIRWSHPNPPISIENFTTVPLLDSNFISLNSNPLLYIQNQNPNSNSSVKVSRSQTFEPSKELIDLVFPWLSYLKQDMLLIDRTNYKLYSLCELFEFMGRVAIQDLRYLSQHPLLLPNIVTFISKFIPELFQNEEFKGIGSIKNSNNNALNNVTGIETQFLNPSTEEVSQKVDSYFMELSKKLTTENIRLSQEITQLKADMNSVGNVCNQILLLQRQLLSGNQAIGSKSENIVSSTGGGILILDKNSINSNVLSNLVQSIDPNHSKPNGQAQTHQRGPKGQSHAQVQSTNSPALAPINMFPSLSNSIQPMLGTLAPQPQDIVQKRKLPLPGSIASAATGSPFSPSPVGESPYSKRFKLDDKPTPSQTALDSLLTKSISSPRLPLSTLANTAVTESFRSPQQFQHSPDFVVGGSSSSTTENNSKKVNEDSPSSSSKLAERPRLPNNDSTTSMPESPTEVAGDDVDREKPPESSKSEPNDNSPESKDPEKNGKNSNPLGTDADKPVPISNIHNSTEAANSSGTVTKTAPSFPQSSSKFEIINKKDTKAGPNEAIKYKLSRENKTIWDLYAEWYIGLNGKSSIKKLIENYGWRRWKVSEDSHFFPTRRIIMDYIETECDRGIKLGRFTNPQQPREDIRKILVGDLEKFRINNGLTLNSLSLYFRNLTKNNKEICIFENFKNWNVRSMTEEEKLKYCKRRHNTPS
- EXPERIMENT_DESCRIPTION: PBM E-score (8-mer binding enrichment) (E-score (-0.5 to 0.5)); higher = stronger / more preferred TF binding
- RUN_PARAMETERS: protein concentration: 100 nM; construct: GST-full length
In all, about 33,000 sequences were measured (“E-score (-0.5 to 0.5)”: median about -0.011, highest 2% from about 0.28 on). Shown is part of a subset that was picked to be rich in the highest values.
MEASURED_ENDPOINT: PBM E-score
The answer should be a number; do not append a unit.

Q: PBM E-score lookup needed for "CGCGCCTA" , thanks.
A: 0.258

Q: Item "CACGGAGC" has what recorded PBM E-score?
A: 0.101

Q: Any idea what PBM E-score was measured for "ATTCCAAG" ?
A: 0.196

Q: Quick check: PBM E-score of "GGCATCTA" ?
A: 0.347

Q: Reported PBM E-score, sequence "TTTCCAAA" : ____
A: 0.178

Q: Which PBM E-score value belongs to "AGCGCCAA" ?
A: 0.124

Q: Quick one: PBM E-score of "CGCCGCGC" ?
A: 0.137

Q: What value of PBM E-score has been reported for the following sequence? "CGTATCTA"
A: 0.0661

Q: Could you tell me which PBM E-score is on file for "AAGCTGCC" ?
A: 0.347

Q: So what's the measured PBM E-score for this one? "GGCGCCAA"
A: 0.377

Q: # input sequence: "CTCTATTA" ; wanted: its PBM E-score
A: 0.154

Q: Quick check: PBM E-score of "GGCGCCAC" ?
A: 0.253

Q: Please give the measured PBM E-score for this sequence: "GGCGCCTA"
A: 0.385

Q: Bench note: what PBM E-score did "CGTCCAAA" show?
A: 0.33

Q: Requested read-out: PBM E-score. Entry: "AGCACGCT"
A: -0.123

Q: PBM E-score for "CTTCCAAC" ?
A: 0.181

Q: Fill in the blank: the reported PBM E-score of "GAGCTGCC" is ____.
A: 0.187

Q: I would be grateful if you could share the reported PBM E-score for "CTTCCAAA" .
A: 0.338

Q: Can you share its PBM E-score? I mean this sequence: "GTTCCAAA"
A: 0.302

Q: Which value of PBM E-score has been reported for "AGCGCCGA" in the records?
A: 0.0415

Q: Param item = "AGCATCTC" ; retrieve measured PBM E-score.
A: 0.121

Q: What value of PBM E-score has been reported for the following sequence? "CAGCTGCA"
A: -0.0536

----------
- TESTED_ON: Gcr1 (UniProt P07261)
- Sequence: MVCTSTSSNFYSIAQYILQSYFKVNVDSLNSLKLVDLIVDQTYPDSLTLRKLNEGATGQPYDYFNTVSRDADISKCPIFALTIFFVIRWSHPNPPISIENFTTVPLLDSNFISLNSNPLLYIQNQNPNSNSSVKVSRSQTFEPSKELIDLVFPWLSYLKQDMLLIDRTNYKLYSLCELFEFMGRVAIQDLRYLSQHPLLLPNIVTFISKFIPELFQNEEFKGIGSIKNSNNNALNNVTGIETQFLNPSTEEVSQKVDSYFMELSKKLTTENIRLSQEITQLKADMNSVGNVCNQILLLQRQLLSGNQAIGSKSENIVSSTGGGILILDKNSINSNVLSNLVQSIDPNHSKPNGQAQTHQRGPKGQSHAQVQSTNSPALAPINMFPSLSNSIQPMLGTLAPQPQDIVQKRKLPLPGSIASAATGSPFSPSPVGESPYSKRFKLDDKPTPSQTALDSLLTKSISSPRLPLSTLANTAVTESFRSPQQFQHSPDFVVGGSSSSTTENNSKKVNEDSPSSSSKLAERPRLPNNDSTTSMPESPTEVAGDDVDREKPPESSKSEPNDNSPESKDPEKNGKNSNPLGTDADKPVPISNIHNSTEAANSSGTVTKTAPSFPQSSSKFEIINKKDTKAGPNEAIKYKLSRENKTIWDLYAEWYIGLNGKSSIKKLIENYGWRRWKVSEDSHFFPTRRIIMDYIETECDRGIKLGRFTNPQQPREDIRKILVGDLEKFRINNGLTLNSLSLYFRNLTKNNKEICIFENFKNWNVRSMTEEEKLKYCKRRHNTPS
- EXPERIMENT_DESCRIPTION: PBM E-score (8-mer binding enrichment) (E-score (-0.5 to 0.5)); higher = stronger / more preferred TF binding
- RUN_PARAMETERS: protein concentration: 100 nM; construct: GST-full length
In all, about 33,000 sequences were measured (“E-score (-0.5 to 0.5)”: median about -0.011, highest 2% from about 0.28 on). Shown is part of a subset that was picked to be rich in the highest values.
Label false if PBM E-score falls below 0.1; label true in every other case.

Q: Has "GCTTCCAC" a recorded PBM E-score greater than or equal to 0.1?
A: true

Q: Could you please find out whether "CCTTCCGA" has PBM E-score that meets 0.1 or exceeds it?
A: false

Q: Answer whether PBM E-score of "CCGTCCAA" is greater than or equal to 0.1.
A: true

Q: Could you verify whether the entry "CATAGACG" shows PBM E-score of no less than 0.1?
A: false

Q: Quick check: does "ACTTCCAT" have PBM E-score greater than or equal to 0.1?
A: true

Q: Could you please find out whether "CCTTCCAC" has PBM E-score that meets 0.1 or exceeds it?
A: true

Q: Exam item: decide whether the reported PBM E-score for "AATTCCAG" is at least 0.1.
A: true

Q: Hi team, for "GCAATCGC" , is the recorded PBM E-score at or above 0.1?
A: false

Q: Does PBM E-score meet or surpass 0.1 for "GCCCGGCA" ?
A: false

Q: hey, is PBM E-score for this one >= 0.1? "CCTTCTAA"
A: false

Q: I'd appreciate it if you could say whether "ACTTCTAA" has PBM E-score at least equal to 0.1.
A: false

Q: Reported PBM E-score reaches at least 0.1 for "ACTTCCTA" ?
A: true

Q: Please tell me: is the sequence "GCGTCCAA" at or over 0.1 in terms of PBM E-score?
A: true

Q: Given "AATTCCAT" , state whether its PBM E-score is at least 0.1.
A: true

Q: Has "GCTTCTAA" a recorded PBM E-score greater than or equal to 0.1?
A: true

Q: Exam item: decide whether the reported PBM E-score for "CAAGCTAA" is at least 0.1.
A: false

Q: Evaluate "GCGTCCAC" : PBM E-score at minimum 0.1?
A: true

Q: Is the recorded value of PBM E-score equal to or greater than 0.1 for this sequence? "AATTCCAA"
A: true

Q: # bool: PBM E-score of "GCTTCTAC" >= 0.1
A: true

Q: Tell me whether PBM E-score is at least 0.1 here: "GCTTCCGA"
A: true

Q: Exam item: decide whether the reported PBM E-score for "ACTTCCGA" is at least 0.1.
A: false

Q: # check: PBM E-score of "CACCGAGA" is greater than or equal to 0.1
A: false
